Provide the reported pIC50 of each item.
assay system: UniProt Q13547
Sequence (Q13547 whole entry): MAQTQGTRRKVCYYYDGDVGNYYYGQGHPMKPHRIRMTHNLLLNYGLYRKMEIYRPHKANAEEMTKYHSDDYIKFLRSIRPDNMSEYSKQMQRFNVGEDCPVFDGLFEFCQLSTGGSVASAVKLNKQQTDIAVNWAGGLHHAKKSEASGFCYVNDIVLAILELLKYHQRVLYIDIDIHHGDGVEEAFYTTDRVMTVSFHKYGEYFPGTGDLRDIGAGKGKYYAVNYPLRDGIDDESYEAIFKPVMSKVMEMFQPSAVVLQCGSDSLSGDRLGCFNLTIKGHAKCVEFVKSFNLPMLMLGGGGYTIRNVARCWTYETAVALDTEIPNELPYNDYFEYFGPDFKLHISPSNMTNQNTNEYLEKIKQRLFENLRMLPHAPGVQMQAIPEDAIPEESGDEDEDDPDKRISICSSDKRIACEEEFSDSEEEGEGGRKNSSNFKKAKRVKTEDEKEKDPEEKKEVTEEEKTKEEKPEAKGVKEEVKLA
test details: Inhibition of human recombinant HDAC1 using Boc-L-Lys (Ac)-AMC as substrate preincubated with compound for 5 mins measured after 35 mins by spectrofluorometric analysis
The value called pIC50 is obtained by taking minus log10 of the concentration in mol/L.

GET /value?item= [N-]=[N+]=Nc1cccc(COC(=O)NCc2ccc(C(=O)Nc3cc(-c4ccccc4)ccc3N)cc2)c1 &field=pIC50 returns 5.42

Just so you know, measured pIC50 for [N-]=[N+]=NCCOc1ccc(C(=O)Nc2cc(-c3ccccc3)ccc2N)cc1N=[N+]=[N-] came out at 4.64

Form: compound = [N-]=[N+]=NCc1cc(N=[N+]=[N-])cc(C(=O)Nc2cc(-c3cccs3)ccc2N)c1 ; pIC50 = 5.25

Entry under test: [N-]=[N+]=NCCOc1ccc(C(=O)Nc2cc(-c3cccs3)ccc2N)cc1N=[N+]=[N-] . Its pIC50 was 4.74

Please fill in: pIC50 reported for Nc1ccc(-c2ccccc2)cc1NC(=O)c1ccccc1 = 6.39
